# assay notes: AUC (0 to t) in Sprague-Dawley rat at 10 mg/kg, po
# Type: ADME, organism-based
# protocol conditions: in vivo
// reported AUC(0-t) for each item listed
Your answer should be a plain number; it is taken to be in ng·h/mL.

{"chemical string": "CCCC[C@H](CN(O)C=O)C(=O)N1CC2(CC2)C[C@H]1C(=O)Nc1ccc(F)c[n+]1[O-]", "AUC(0-t) (ng·h/mL)": 1960}
{"chemical string": "CCCC[C@H](CN(O)C=O)C(=O)N1CC2(CC2)C[C@H]1C(=O)Nc1ncc(C)s1", "AUC(0-t) (ng·h/mL)": 2080}
{"chemical string": "CCCC[C@H](CN(O)C=O)C(=O)N1CC2(CC2)C[C@H]1c1nc(-c2cccnc2)no1", "AUC(0-t) (ng·h/mL)": 1280}
{"chemical string": "CCCC[C@H](CN(O)C=O)C(=O)N1CC2(CC2)C[C@H]1C(=O)Nc1cc(C(C)(C)C)on1", "AUC(0-t) (ng·h/mL)": 1950}
{"chemical string": "CCCC[C@H](CN(O)C=O)C(=O)N1CC2(CC2)C[C@H]1C(=O)Nc1ccc(C)c(Nc2nccc(-c3cccnc3)n2)c1", "AUC(0-t) (ng·h/mL)": 126}

Query :: Output AUC(0-t) of CCCC[C@H](CN(O)C=O)C(=O)N1CC2(CC2)C[C@H]1c1nc2ccccc2[nH]1
Result :: 2340

###

# System: Staphylococcus epidermidis
# assay notes: Antibacterial activity against methicillin-resistant Staphylococcus epidermidis 14-4
# Format: functional
// reported MIC for each item listed
Your answer should be a plain number; it is taken to be in µg/mL.

Please review the following examples before continuing.
{"molecule": "CCCC[C@H](CN(O)C=O)C(=O)N1CC2(CC2)C[C@H]1C(=O)Nc1ccc(F)c[n+]1[O-]", "uom": "µg/mL", "recorded measurement": 0.125}
{"molecule": "CCCC[C@H](CN(O)C=O)C(=O)N1CC2(CC2)C[C@H]1C(=O)Nc1cccc(Nc2ncccn2)c1", "uom": "µg/mL", "recorded measurement": 0.25}
{"molecule": "CO/N=C(\\C(=O)N[C@@H]1C(=O)N2C(C(=O)[O-])=CCS[C@H]12)c1csc(N)n1.[Na+] [CEFTIZOXIME SODIUM]", "uom": "µg/mL", "recorded measurement": 32}

Please examine the following record next.
Query :: # assay system Staphylococcus epidermidis: give MIC of CCCC[C@H](CN(O)C=O)C(=O)N1CC2(CC2)C[C@H]1C(=O)Nc1cc[nH]n1
Result :: 8

###

# Test system: Staphylococcus aureus
# assay notes: Antibacterial activity against methicillin-sensitive Staphylococcus aureus 14-1
# Assay type: functional
// returns -1 unless MIC is strictly below 0.5 mg/L, in which case 1

Reference set (5 entries):
{"compound": "CCCC[C@H](CN(O)C=O)C(=O)N1CC2(CC2)C[C@H]1C(=O)Nc1ccc(C)c(Nc2nccc(-c3cccnc3)n2)c1", "category label": 1}
{"compound": "CCCC[C@H](CN(O)C=O)C(=O)N1CC2(CC2)C[C@H]1C(=O)Nc1ncc(C)s1", "category label": 1}
{"compound": "CCCC[C@H](CN(O)C=O)C(=O)N1CC2(CC2)C[C@H]1c1nnc2ccccn12", "category label": -1}
{"compound": "CO[C@H]1/C=C/O[C@@]2(C)Oc3c(C)c(O)c4c(O)c(c(/C=N/N5CCN(C)CC5)c(O)c4c3C2=O)NC(=O)/C(C)=C\\C=C\\[C@H](C)[C@H](O)[C@@H](C)[C@@H](O)[C@@H](C)[C@H](OC(C)=O)[C@@H]1C", "category label": 1}
{"compound": "Cc1nc(NNC(=O)[C@H](CC2CCCC2)CN(O)C=O)c(F)c(N2CCN3CCOC[C@@H]3C2)n1", "category label": -1}

Query :: Check if MIC falls below 0.5 mg/L for CCCC[C@H](CN(O)C=O)C(=O)N1CC2(CC2)C[C@H]1c1nnc(-c2ccccn2)o1 .
Result :: -1

Query :: Check if MIC falls below 0.5 mg/L for CCCC[C@H](CN(O)C=O)C(=O)N1CC2(CC2)C[C@H]1C(=O)Nc1cc[nH]n1 .
Result :: -1

Query :: Check if MIC falls below 0.5 mg/L for CCCC[C@H](CN(O)C=O)C(=O)N1CC2(CC2)C[C@H]1C(=O)Nc1nccc(-c2cccnc2)n1 .
Result :: 1

Query :: Check if MIC falls below 0.5 mg/L for CCCC[C@H](CN(O)C=O)C(=O)N1CC2(CC2)C[C@H]1C(=O)Nc1cc(C(C)(C)C)on1 .
Result :: 1

Query :: Check if MIC falls below 0.5 mg/L for CCCC[C@H](CN(O)C=O)C(=O)N1CC2(CC2)C[C@H]1C(=O)Nc1ccc(F)c[n+]1[O-] .
Result :: 1

Query :: Check if MIC falls below 0.5 mg/L for CCCC[C@H](CN(O)C=O)C(=O)N1CC2(CC2)C[C@H]1c1nc2ccccc2[nH]1 .
Result :: -1

Query :: Check if MIC falls below 0.5 mg/L for C[C@H]1COc2c(N3CCN(C)CC3)c(F)cc3c(=O)c(C(=O)O)cn1c23.C[C@H]1COc2c(N3CCN(C)CC3)c(F)cc3c(=O)c(C(=O)O)cn1c23.O .
Result :: -1

Query :: Check if MIC falls below 0.5 mg/L for CO/N=C(\C(=O)N[C@@H]1C(=O)N2C(C(=O)[O-])=CCS[C@H]12)c1csc(N)n1.[Na+] [CEFTIZOXIME SODIUM] .
Result :: -1

Query :: Check if MIC falls below 0.5 mg/L for CCCC[C@H](CN(O)C=O)C(=O)N1CC2(CC2)C[C@H]1C(=O)Nc1cccc(Nc2ncccn2)c1 .
Result :: 1

###

// reported MIC for each item listed
# Test system: Staphylococcus epidermidis
# assay notes: Antibacterial activity against methicillin-sensitive Staphylococcus epidermidis 14-1
# Type: functional
Your answer should be a plain number; it is taken to be in µg/mL.

Please review the following examples before continuing.
{"chemical string": "CCCC[C@H](CN(O)C=O)C(=O)N1CC2(CC2)C[C@H]1C(=O)Nc1cc[nH]n1", "MIC (µg/mL)": 4}
{"chemical string": "CCCC[C@H](CN(O)C=O)C(=O)N1CC2(CC2)C[C@H]1C(=O)Nc1ncccc1F", "MIC (µg/mL)": 0.125}

Please examine the following record next.
Query :: # assay system Staphylococcus epidermidis: give MIC of CCCC[C@H](CN(O)C=O)C(=O)N1CC2(CC2)C[C@H]1c1nnc2ccccn12
Result :: 0.25

###

# assay notes: AUC (0 to infinity) in Sprague-Dawley rat at 2 mg/kg, iv
# Format: ADME, organism-based
# Set-up: dose 2 mg/kg, route intravenous, time infinity
# protocol conditions: Sprague-Dawley, in vivo
Label yes (1) for high-side AUC(0-inf) (at or above 1000 ng·h/mL) and no (0) for low-side AUC(0-inf) (below it).

{"chemical string": "CCCC[C@H](CN(O)C=O)C(=O)N1CC2(CC2)C[C@H]1C(=O)Nc1ccc(C)c(Nc2nccc(-c3cccnc3)n2)c1", "category label": "no (0)"}

Query :: Quick check, AUC(0-inf) >= 1000 ng·h/mL? CCCC[C@H](CN(O)C=O)C(=O)N1CC2(CC2)C[C@H]1C(=O)Nc1ccc(F)c[n+]1[O-]
Result :: yes (1)

Query :: Quick check, AUC(0-inf) >= 1000 ng·h/mL? CCCC[C@H](CN(O)C=O)C(=O)N1CC2(CC2)C[C@H]1C(=O)Nc1cc(C(C)(C)C)on1
Result :: yes (1)

Query :: Quick check, AUC(0-inf) >= 1000 ng·h/mL? CCCC[C@H](CN(O)C=O)C(=O)N1CC2(CC2)C[C@H]1c1nc2ccccc2[nH]1
Result :: yes (1)

Query :: Quick check, AUC(0-inf) >= 1000 ng·h/mL? CCCC[C@H](CN(O)C=O)C(=O)N1CC2(CC2)C[C@H]1c1nc(-c2cccnc2)no1
Result :: no (0)

###

# assay notes: Tmax in Sprague-Dawley rat at 10 mg/kg, po
# Assay type: ADME, organism-based
# protocol conditions: in vivo
readout: Tmax (min)
Your answer should be a plain number; it is taken to be in min.

Query :: Output Tmax of CCCC[C@H](CN(O)C=O)C(=O)N1CC2(CC2)C[C@H]1c1nc(-c2cccnc2)no1
Result :: 15

Query :: Output Tmax of CCCC[C@H](CN(O)C=O)C(=O)N1CC2(CC2)C[C@H]1C(=O)Nc1ccc(F)c[n+]1[O-]
Result :: 15

###

# Test system: Staphylococcus epidermidis
# assay notes: Antibacterial activity against methicillin-sensitive Staphylococcus epidermidis 14-1
# Type: functional
readout: MIC (µg/mL)
Your answer should be a plain number; it is taken to be in µg/mL.

Please review the following examples before continuing.
{"compound": "Cc1nc(NNC(=O)[C@H](CC2CCCC2)CN(O)C=O)c(F)c(N2CCN3CCOC[C@@H]3C2)n1 [LANOPEPDEN]", "MIC [µg/mL]": 0.125}
{"compound": "C[C@H]1COc2c(N3CCN(C)CC3)c(F)cc3c(=O)c(C(=O)O)cn1c23.C[C@H]1COc2c(N3CCN(C)CC3)c(F)cc3c(=O)c(C(=O)O)cn1c23.O [LEVOFLOXACIN]", "MIC [µg/mL]": 0.5}
{"compound": "CO/N=C(\\C(=O)N[C@@H]1C(=O)N2C(C(=O)[O-])=CCS[C@H]12)c1csc(N)n1.[Na+] [CEFTIZOXIME SODIUM]", "MIC [µg/mL]": 32}
{"compound": "CCCC[C@H](CN(O)C=O)C(=O)N1CC2(CC2)C[C@H]1C(=O)Nc1ccc(F)c[n+]1[O-]", "MIC [µg/mL]": 0.03}

Please examine the following record next.
Query :: Output MIC of CCCC[C@H](CN(O)C=O)C(=O)N1CC2(CC2)C[C@H]1C(=O)Nc1nccc(-c2cccnc2)n1
Result :: 0.125
